The reported numbers originate from paper PMC4796657.

# tgt: UniProt:Q8NBI5
# Sequence (Q8NBI5 whole entry): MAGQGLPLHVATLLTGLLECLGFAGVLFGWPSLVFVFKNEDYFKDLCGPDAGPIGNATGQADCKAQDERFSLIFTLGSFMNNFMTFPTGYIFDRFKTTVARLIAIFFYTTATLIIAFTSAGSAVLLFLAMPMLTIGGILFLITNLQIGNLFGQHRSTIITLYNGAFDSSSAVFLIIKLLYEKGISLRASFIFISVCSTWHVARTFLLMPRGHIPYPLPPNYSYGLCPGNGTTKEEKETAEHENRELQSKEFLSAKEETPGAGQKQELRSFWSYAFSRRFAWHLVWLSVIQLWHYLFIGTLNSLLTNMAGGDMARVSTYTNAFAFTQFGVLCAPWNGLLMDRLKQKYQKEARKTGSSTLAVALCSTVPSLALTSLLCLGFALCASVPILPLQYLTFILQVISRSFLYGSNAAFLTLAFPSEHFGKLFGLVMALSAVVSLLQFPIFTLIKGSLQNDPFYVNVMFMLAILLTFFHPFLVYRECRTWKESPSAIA
# assay text: cell-based
# Design: full length, 491 amino acid residues, stably expressed in MDCKII cells; species or system MDCKII stably expressing ENBT1; inhibition of ENBT1-specific [3H]adenine (5 nM) uptake, 40 s, 22 C, mock-subtracted, scintillation counting
# condition details: MDCK-II; [3H]adenine 5 nM, pH 7.4, 22 C, 40 s; read-out: Uptake rate (% of control)
Please respond with reported remaining activity at 5000 µM for every item in the list.
Give the value, in units of %, as a plain number.

What remaining activity at 5000 µM value was documented for this molecule, NC(=O)C[C@H](N)C(=O)O [Asparagine] ? 103

Also N[C@@H](CO)C(=O)O [Serine] , if possible. 105

Also N[C@@H](Cc1c[nH]c2ccccc12)C(=O)O [Tryptophan] , if possible. 95.6

Also N[C@@H](Cc1ccccc1)C(=O)O [Phenylalanine] , if possible. 98.7

Also CC(C)C[C@H](N)C(=O)O [Leucine] , if possible. 94

Also NC(=O)CC[C@H](N)C(=O)O [Glutamine] , if possible. 105

Also CSCC[C@H](N)C(=O)O [Methionine] , if possible. 95.8

Also N[C@@H](CS)C(=O)O [Cysteine] , if possible. 104

Also N[C@@H](CC(=O)O)C(=O)O [Aspartate] , if possible. 99.9

Also O=C(O)[C@@H]1CCCN1 [Proline] , if possible. 103

Also CC[C@H](C)[C@H](N)C(=O)O [Isoleucine] , if possible. 100

Also N[C@@H](CCC(=O)O)C(=O)O [Glutamate] , if possible. 103

Also C[C@H](N)C(=O)O [Alanine] , if possible. 103

Also NCCCC[C@H](N)C(=O)O [Lysine] , if possible. 96.6

Also CC(C)[C@H](N)C(=O)O [Valine] , if possible. 101

Also N[C@@H](Cc1c[nH]cn1)C(=O)O [Histidine] , if possible. 101

Also C[C@@H](O)[C@H](N)C(=O)O [Threonine] , if possible. 99.7

Also N=C(N)NCCC[C@H](N)C(=O)O [Arginine] , if possible. 95.8

Also N[C@@H](Cc1ccc(O)cc1)C(=O)O [Tyrosine] , if possible. 106
